Source of measurements: PubChem BioAssay (Tox21)

biological target: Androgen receptor (Homo sapiens); assay: qHTS assay to identify small molecule antagonists of the androgen receptor (AR) signaling pathway (AID 743035); conditions: HEK293 AR-UAS-bla, R1881-stimulated, beta-lactamase FRET, 16 h; series mostly up to 58.5 µM
Inconclusive results are not listed. Calls of active or inactive are those of the source. Calls follow the shape of the dose curve; as a rule, active = well fitted inhibition curve with a large enough effect in the signal ratio in the repeat runs (not every such curve was filed as active); inconclusive = weak or mixed curves, or effect the other way; inactive = no such curve, though single readings can be large or run the other way; the % refers to the signal ratio.
// one of yes (1) = active, no (0) = inactive, no free text

1. COc1cc(C(=O)NC2CCN(C)CC2)ccc1Nc1ncc2c(n1)N(C1CCCC1)CC(F)(F)C(=O)N2C
yes (1)

Could you kindly confirm the outcome this assay logged for O=C(/C=C/c1ccccc1)OCCc1ccccc1 ? no (0)

Query: recorded result category for NC(=O)c1ccncc1 in this test no (0)
